The following binders are listed with their measured EC50 values.
# system.tested: T1, membrane-bound full-length human CD89 (human, UniProt P24071 22-287)
# T1 construct: on stably or transiently transfected HEK293F cells; also called FcalphaRI; huCD89
# assay.summary: FACS, HEK293F-huCD89, half-maximum binding
Form entry: value (µg/mL) — number only.

binder	unit.tag	EC50
mouse anti-human CD89-specific antibody 16D6 (antibody, mouse IgG1, V domains shown, also called 16D16) VH: QVQLQQSGAELMKPGASVKISCKATGYTFSTYWIEWVKQRPGHGLEWIGEILPGSGSANYNEKFKGKATFTADTSSNTAYMQLSSLTFEDSAVYYCAKGFGSPYYYAMDYWGQGTSVTVSS VL: EIVLTQSPALMAASPGEKVTITCSVSSSISSSNLHWYQQKSETSPKPWIYGTSKLASGVPVRFSGSGSGTSYSLTISNMEAEDAATYYCQQWSSFPLTFGGGTKLEIK	µg/mL	1.62
mouse anti-human CD89-specific antibody 30C7 (antibody, mouse IgG1, V domains shown) VH: QVQLQQSGPELVRPGVSVKISCKGSGYTFTDYVMHWVKQSHAKSLEWIGVISTYSGNTNYNQKFKGKATMTVDKSSSTAYMELARLTSEDSAIYYCARESDGYYFDYWGQGTTLTVSS VL: DIVMSQSPSSLAVSAGEKVTMSCKSSQSLLNSRTRKNYLAWYQQKPGQSPKLLIYWASTRESGVPDRFTGSGSGTDFTLTISSVQAEDLAVYYCKQSYNLMYTFGGGTKLEIK	µg/mL	0.484
mouse anti-human CD89-specific antibody 8F3 (antibody, mouse IgG1, V domains shown) VH: EVQLVESGGGLVKPGGSLKLSCAASGFTFSNYGMSWVRQTPDKRLEWVATMHSGGTYTYYPDNVKGRFTISRDNAKNNLYLQMSSLRSEDTAMYYCARETGLYDGLFDFWGQGTTLTVSS VL: DVQITQSPSYLAASPGETITINCRASKTISKYLAWYQEKPGKTNMLLIYSGSTLQSGVPSRFSGSGSGTDFTLTISSLEPEDLAMYYCQQHDEYPWTFGGGTKLEIK	µg/mL	0.714
mouse anti-human CD89-specific antibody 10E7 (antibody, mouse IgG1, V domains shown) VH: EVQLVESGGGLVQPGGSLKLSCAASGLTFSSYGMSWVRQTPDKRLELVATINGNGDITYYPDSVKGRFTISRDNAKNTLYLQMSSLKSEDTAMYYCARDYDYDYAMDYWGQGTSVTVSS VL: DIQMTQSTSSLSASLGDSVTISCRASQDIINYLNWYQQKPDGTVKLLIYYTSRLHSGVPSRFSGSGSGTEYSLTVSNLEKEDIATYFCQQGKTLPYTFGGGTKLEIK	µg/mL	0.637

Please turn your attention to the following entry.
Give the measured EC50 of mouse anti-human CD89-specific antibody 20B4 (antibody, mouse IgG1, V domains shown) VH: QVQLKESGPGLVAPSQSLSITCTVSGFSLTSYGVHWVRQPPGKGLEWLGIIWAGGSTSYNSALMSRLSISKDNSKSQVFLKMNSLQTDDTAMYYCARDHYDLFAYWGQGTLVTVSA VL: DILMTQSPSSMSVSLGDTVSITCHASQDISRNIGWLQQKPGKSFKGLIYHGTNLEDGVPSRFSGSGSGADYSLTISSLESEDFADYYCVQYAQFPRTFGGGTKLEIK .
0.26
